- System: Plasmodium berghei
- MEASUREMENT_DESCRIPTION: Luciferase/luciferin-expressing antifolate-resistant parasites were used to infect a culture of HepG2 cells that were pre-incubated with compounds. Infected hepatocytes emit light due to the luciferase reaction. Assay results are presented as the percent inhibition of light emission compared to control. […]
- Format: functional
- SETUP_CONDITIONS: sporozoite, PBLUC_HILL_SLOPE 1.63, PBLUC_R_SQUARED 0.576, read-out: LUCIFERASE INFECTION ASSAY - IC50
READOUT_KIND: IC50 (µM)
Give a bare numeral; the unit µM is implied.

Form field: reported IC50 of CN1/C(=C\C(=O)COC(=O)C2Cc3ccccc3CN2C(=O)c2ccccc2)C(C)(C)c2ccccc21 (stereo unspecified)
3.35
